- Tested on: SUM149
- test-summary: percent difference in area under dose-response curve of relative cell number, RPMI vs HPLM; higher = drug relatively more effective in HPLM than RPMI (negative = less effective in HPLM)
- experimental-parameters: treatment time: 72 h; dose range: 10-point, 1 nM to 20 µM; media compared: RPMI vs HPLM
Could you please report measured percent difference in area under dose-response curve for the items listed next?
Numbers only, in %.

Nc1nccc(Oc2ccc(NC(=O)c3c[nH]cc(-c4ccc(F)cc4)c3=O)cc2F)c1Cl :: -4.65

Please state percent difference in area under dose-response curve for every molecule in the list that follows.
1. O=C(CCCCCCCn1cc(-c2cccnc2)nn1)Nc1ccccc1-c1ccccc1
2. C#Cc1cccc(Nc2ncnc3cc(OC)c(OCCCCCCC(=O)NO)cc23)c1

0.587
8.57

###

- System: SUM149
- test-summary: percent difference in area under dose-response curve of relative cell number, RPMI vs HPLM; higher = drug relatively more effective in HPLM than RPMI (negative = less effective in HPLM)
- experimental-parameters: treatment time: 72 h; dose range: 10-point, 1 nM to 20 µM; media compared: RPMI vs HPLM
observable: percent difference in area under dose-response curve (%)
One number for each entry, in %.

Example cases with answers are listed next.
CN1CCN(c2nc(C3=C(c4c[nH]c5ccccc45)C(=O)NC3=O)c3ccccc3n2)CC1 :: 9.13
Cc1nc(Nc2ncc(C(=O)Nc3c(C)cccc3Cl)s2)cc(N2CCN(CCO)CC2)n1 :: 41.7
COc1ccc2cc(-c3nc(-c4ccc([S+](C)[O-])cc4)[nH]c3-c3ccncc3)ccc2c1 (stereo not given) :: -0.194
CC1(C)CCC2=C(O1)c1ccccc1C(=O)C2=O :: 0.097
O=C(NC1CCNCC1)c1n[nH]cc1NC(=O)c1c(Cl)cccc1Cl :: -11.2
Cc1ccc(NC(=O)c2ccc(CN3CCN(C)CC3)cc2)cc1Nc1nccc(-c2cccnc2)n1 [Imatinib] :: -5.87
Cc1nc(N)sc1-c1ccnc(Nc2ccc(N3CCOCC3)cc2)n1 :: 11
C=CC(=O)Nc1cc(Nc2nccc(-c3cn(C)c4ccccc34)n2)c(OC)cc1N(C)CCN(C)C :: 1.9

Please state percent difference in area under dose-response curve for every compound in the list that follows.
1. O=C(O)C(=O)O.[NH-][C@@H]1CCCC[C@H]1[NH-].[Pt+2]
2. CC(C)c1cc(C(C)C)c(CC(=O)NS(=O)(=O)Oc2c(C(C)C)cccc2C(C)C)c(C(C)C)c1
3. CC(C)n1c(/C=C/C(O)CC(O)CC(=O)O)c(-c2ccc(F)cc2)c2ccccc21 (stereo not given) [Fluvastatin_sodium]
4. Cc1ccc(Nc2nccc(N(C)c3ccc4c(C)n(C)nc4c3)n2)cc1S(N)(=O)=O
5. C=CCN(C)CCCCCCOc1ccc(C(=O)c2ccc(Br)cc2)c(F)c1
6. CO[C@H]1C[C@@H]2CC[C@@H](C)[C@@](O)(O2)C(=O)C(=O)N2CCCC[C@H]2C(=O)O[C@H]([C@H](C)C[C@@H]2CC[C@@H](O)[C@H](OC)C2)CC(=O)[C@H](C)/C=C(\C)[C@@H](O)[C@@H](OC)C(=O)[C@H](C)C[C@H](C)/C=C/C=C/C=C/1C

1: -2.44; 2: -0.523; 3: -8.4; 4: 5.29; 5: -0.097; 6: 12.8

API: value(readout=percent difference in area under dose-response curve, system=SUM149) for record Cc1ccc(-c2cc(C(F)(F)F)nn2-c2ccc(S(N)(=O)=O)cc2)cc1
1.54
